# Test system: Human rhinovirus sp.
# experimental details: In vitro concentration which inhibits 80% of serotypes tested
# Format: functional
property measured: MIC80

Solved cases below.
CCOC(=O)c1ccc(OCCCCC(=O)c2ccc(Cl)s2)cc1    2.18 µM
O=C(CCCCOc1ccc(C2=NCCO2)cc1)c1cc[nH]c1    > 32 µM
Cc1ccc(CCCCCOc2ccc(C3=NCCO3)cc2)s1    > 30.4 µM
Cc1csc(C(=O)CCCCOc2ccc(C(=O)O)cc2)c1    > 31.4 µM
O=C(CCCCOc1ccc(C2=NCCO2)cc1)c1ccc[nH]1    > 32 µM

Req: Identify the measured MIC80 of CCOC(=O)c1ccc(OCCCCCc2ccc(Cl)s2)cc1 for Human rhinovirus sp..
Resp: 18.3 µM

Req: Quick check: MIC80 on Human rhinovirus sp., item CCOC(=O)c1ccc(OCCCCC(=O)c2cc(C)n(C)c2C)cc1 ?
Resp: > 28 µM

Req: Record lookup: for Human rhinovirus sp., what MIC80 belongs to O=C(CCCCOc1ccc(C2=NCCO2)cc1)c1ccc(Cl)s1 ?
Resp: > 27.1 µM

Req: Lab request: please report MIC80 under test system Human rhinovirus sp. for Cc1ccsc1C(=O)CCCCOc1ccc(C(=O)O)cc1
Resp: > 31.4 µM

Req: Query MIC80 on Human rhinovirus sp. for Cc1cc(C(=O)CCCCOc2ccc(C3=NCCO3)cc2)c(C)[nH]1
Resp: > 29.4 µM

Req: Please tell me: MIC80 of CCOC(=O)c1ccc(OCCCC(=O)c2ccc(C)s2)cc1 , system Human rhinovirus sp.?
Resp: > 30.1 µM

Req: Field: MIC80 (Human rhinovirus sp.). Entry: CCOC(=O)c1ccc(OCCCCC(=O)c2sccc2C)cc1
Resp: 20.8 µM

---

# Test system: Human rhinovirus sp.
# experimental details: In vitro concentration required to achieve 50% protection of HeLa cells from HRV-14 induced cytopathic effect
# Format: functional, organism-based
pEC50: −log10 of the molar value.
# pEC50 values compiled below

Look over these answered cases.
CCOC(=O)c1ccc(OCCCC(=O)c2ccc(C)s2)cc1    < 4.52
Cc1csc(C(=O)CCCCOc2ccc(C3=NCCO3)cc2)c1    6.06
Clc1ccc(CCCCCOc2ccc(C3=NCCO3)cc2)s1    5.55
Cc1ccc(C(=O)CCCCOc2ccc(C3=NCCO3)cc2)s1    6.85
Cc1cc(C(=O)CCCCOc2ccc(C3=NCCO3)cc2)c(C)[nH]1    < 4.53

Req: Please report the recorded pEC50 for CCOC(=O)c1ccc(OCCCCC(=O)c2ccc(C)o2)cc1 .
Resp: 5.62

Req: Any idea what its pEC50 is? The molecule is CCOC(=O)c1ccc(OCCCCC(=O)c2cc(C)[nH]c2C)cc1
Resp: 4.72

---

# Tested on: Human rhinovirus sp.
# experimental details: In vitro concentration which inhibits 80% of serotypes tested
# Type: functional
property measured: MIC80 (µM)

Cc1csc(C(=O)CCCCOc2ccc(C3=NCCO3)cc2)c1    14.6
CCOC(=O)c1ccc(OCCCCCc2ccc(C)s2)cc1    14.3
CCOC(=O)c1ccc(OCCCCC(=O)c2cc[nH]c2)cc1    19.5

---

# System: Human rhinovirus sp.
# experimental details: In vitro concentration required to achieve 50% protection of HeLa cells from HRV-14 induced cytopathic effect
# Format: functional, organism-based
pEC50: −log10 of the molar value.
property measured: pEC50

Cc1csc(C(=O)CCCCOc2ccc(C(=O)O)cc2)c1    < 4.50

Req: Give recorded pEC50 with Human rhinovirus sp. for the following compound: c1ccn(CCCCCOc2ccc(C3=NCCO3)cc2)c1
Resp: < 4.50

Req: So what pEC50 did Cc1ccsc1C(=O)CCCCOc1ccc(C(=O)O)cc1 get with Human rhinovirus sp.?
Resp: < 4.50

Req: Observed pEC50 on Human rhinovirus sp. for Cn1cc(C(=O)CCCCOc2ccc(C(=O)O)cc2)cc1C=O , please.
Resp: < 4.51

Req: What value of pEC50 on Human rhinovirus sp. does CCOC(=O)c1ccc(OCCCCC(=O)c2sccc2C)cc1 have?
Resp: < 4.54

Req: Give pEC50 (Human rhinovirus sp.) of the following compound: O=C(CCCCOc1ccc(C2=NCCO2)cc1)c1cc[nH]c1
Resp: < 4.49
